target: human GPR139 receptor (Homo sapiens (Human), UniProt Q6DWJ6); experiment: GPR139 Competition Binding; conditions: stably transfected CHO-TRex membranes, 1 nM 3H radioligand; read-out: GPR139 Inhibition (Ki (nM));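 further: receptor expression induced with doxycycline before membrane preparation, bound radioactivity counted by scintillation, Ki fitted with a four-parameter logistic model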
Sequence (Q6DWJ6 whole entry): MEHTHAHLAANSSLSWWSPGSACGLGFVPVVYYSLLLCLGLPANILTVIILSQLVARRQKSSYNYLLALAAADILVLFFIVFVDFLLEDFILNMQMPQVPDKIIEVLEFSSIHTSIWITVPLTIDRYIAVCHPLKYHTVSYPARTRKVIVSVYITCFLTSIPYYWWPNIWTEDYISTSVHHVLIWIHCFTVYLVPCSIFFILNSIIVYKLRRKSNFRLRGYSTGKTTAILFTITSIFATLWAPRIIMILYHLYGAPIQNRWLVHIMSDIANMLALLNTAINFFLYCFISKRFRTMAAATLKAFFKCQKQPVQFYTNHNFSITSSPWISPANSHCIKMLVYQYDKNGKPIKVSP
Readout Name: Ki
Provide a numeric answer, followed by its unit.

COc1ccc2c(=O)n(CC(=O)N[C@@H](C)c3ccc(OC(F)(F)F)cc3)nnc2c1 : 218 nM

Q) Report measured Ki; entry is COc1ccc([C@H](C)NC(=O)Cn2nnc3c(Cl)cc(Cl)cc3c2=O)cc1
A) 190 nM

Q) Report measured Ki; entry is CC[C@H](NC(=O)Cn1nnc2ccccc2c1=O)c1ccc(OC(F)(F)F)cc1
A) 183 nM
